# Read-out: Insulin Like Growth Factor 1 (IGF1), IGF1 (gene 3479)
# Procedure summary: LTEA_HepaRG_IGF1: Life Technologies and Expression Analysis (LTEA) Assay for Insulin Like Growth Factor 1 (IGF1) using HepaRG (AID 2283506)
# Measurement context: mRNA level, 48 h; actives raise or lower the signal
Activity calls are given as the source filed them. Rule for the calls: active = hit-call score of the fitted dose curve at least 0.9, where 1 is the maximum; inactive = score below 0.9.
Outcome codes: Yes = active, No = inactive

sample_smiles=C#C[C@]1(O)CC[C@H]2[C@@H]3CCc4cc(O)ccc4[C@H]3CC[C@@]21C class=No
sample_smiles=CCCCOCCOCCO class=No
sample_smiles=C=C(C)C(N)=O class=No
sample_smiles=C[C@]12CC[C@@H]3c4ccc(O)cc4CC[C@H]3[C@@H]1CC[C@@H]2O class=Yes

---

# Read-out: CD40, CD40 (gene 958)
# Procedure summary: BSK_SAg_CD40: BioMAP Diversity Plus: SAg Assay for CD40 Biomarker Activity (AID 2283088)
# Measurement context: primary human HUVEC with PBMC; actives raise or lower the signal
# Description: BSK_SAg is a cell-based, multiplexed-readout assay that uses umbilical vein endothelium and peripheral blood mononuclear cells, a human vascular primary cell co-culture, with measurements taken at 24 hours after chemical dosing in a 96-well plate.BSK_SAg_CD40 is one of 10 assay component(s) measured or calculated from the BSK_SAg assay. […] This assay endpoint, BSK_SAg_CD40, was analyzed with bidirectional fitting relative to DMSO as the negative control and baseline of activity. […]
The source made the active and inactive calls. How the source made its calls: active means hit-call score of the fitted dose curve at least 0.9, where 1 is the maximum; inactive means score below 0.9.
Recorded metric: AC50

sample_smiles=CC(C)CCCC(C)(C)O readout_value=inactive
sample_smiles=CC(=O)OCC=C(C)CCC=C(C)CCC=C(C)C readout_value=inactive
sample_smiles=c1ccc(Sc2ccccc2)cc1 readout_value="32.3 µM (active)"
sample_smiles=O=C(O)C(F)(F)C(F)(F)C(F)(F)C(F)(F)C(F)(F)C(F)(F)C(F)(F)C(F)F readout_value=inactive
sample_smiles=O=C(c1ccc(OCCN2CCCCC2)cc1)c1c(-c2ccc(O)cc2)sc2cc(O)ccc12 readout_value="19.4 µM (active)"
sample_smiles=C=C(C)C(N)=O readout_value=inactive
sample_smiles=CCCCN(CCO)CCO readout_value=inactive
sample_smiles=CCOC(=O)C=Cc1ccccc1 readout_value=inactive
sample_smiles=O=C1OC2(c3ccc(O)cc3Oc3cc(O)ccc32)c2ccccc21 readout_value=inactive

---

# Test system: mouse Estrogen Receptor alpha (Era), Esr1 (gene 13982) (UniProt P19785)
# Sequence (P19785 whole entry, looked up): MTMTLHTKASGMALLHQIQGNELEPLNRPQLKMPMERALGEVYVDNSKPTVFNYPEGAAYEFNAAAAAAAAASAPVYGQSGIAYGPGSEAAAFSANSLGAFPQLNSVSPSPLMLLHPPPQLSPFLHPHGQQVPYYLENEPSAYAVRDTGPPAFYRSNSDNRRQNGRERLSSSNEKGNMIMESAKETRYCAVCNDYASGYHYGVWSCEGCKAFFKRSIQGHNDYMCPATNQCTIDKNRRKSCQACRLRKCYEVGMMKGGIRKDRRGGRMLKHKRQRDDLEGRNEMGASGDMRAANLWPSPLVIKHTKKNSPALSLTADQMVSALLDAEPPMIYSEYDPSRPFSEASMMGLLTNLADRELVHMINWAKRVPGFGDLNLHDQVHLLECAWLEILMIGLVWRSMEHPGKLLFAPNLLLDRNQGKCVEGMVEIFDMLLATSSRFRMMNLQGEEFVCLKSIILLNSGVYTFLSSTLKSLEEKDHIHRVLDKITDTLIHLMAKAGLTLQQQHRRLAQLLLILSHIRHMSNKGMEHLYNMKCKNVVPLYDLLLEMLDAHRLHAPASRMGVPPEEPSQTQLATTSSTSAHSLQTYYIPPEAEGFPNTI
# Procedure summary: NVS_NR_mERa: NovaScreen (NVS) Nuclear Receptor Binding Assay for mouse Estrogen Receptor alpha (Era) (AID 2283378);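 note: hit means loss of bound radioligand signal relative to DMSO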
Inconclusive results are not listed. Active and inactive are the calls of the source. How the source made its calls: active means hit-call score of the fitted dose curve at least 0.9, where 1 is the maximum; inconclusive means response in the unintended direction; inactive means score below 0.9.
Outcomes: active, inactive

molecule=CCCCCCCCCCCCOCCOS(=O)(=O)O class=active
molecule=CCCCCCCCOC(=O)c1ccc(O)cc1 class=active
molecule=Cc1cccc(O)c1 class=inactive
molecule=CN1CCc2cccc3c2[C@H]1Cc1ccc(O)c(O)c1-3 class=active
molecule=CCC(C)(C)c1cc(O)c(C(C)(C)CC)cc1O class=inactive
molecule=CC(=O)CC(=O)N(C)C class=inactive
molecule="CC(O)CN (stereo not given)" class=active
molecule=COc1ccccc1O class=inactive
molecule=CCNC(=S)NCC class=inactive
molecule="CCOCC(C)O (stereo not given)" class=active

---

# Test system: Estrogen receptor (Homo sapiens) (UniProt P03372)
# Sequence (P03372 whole entry, looked up): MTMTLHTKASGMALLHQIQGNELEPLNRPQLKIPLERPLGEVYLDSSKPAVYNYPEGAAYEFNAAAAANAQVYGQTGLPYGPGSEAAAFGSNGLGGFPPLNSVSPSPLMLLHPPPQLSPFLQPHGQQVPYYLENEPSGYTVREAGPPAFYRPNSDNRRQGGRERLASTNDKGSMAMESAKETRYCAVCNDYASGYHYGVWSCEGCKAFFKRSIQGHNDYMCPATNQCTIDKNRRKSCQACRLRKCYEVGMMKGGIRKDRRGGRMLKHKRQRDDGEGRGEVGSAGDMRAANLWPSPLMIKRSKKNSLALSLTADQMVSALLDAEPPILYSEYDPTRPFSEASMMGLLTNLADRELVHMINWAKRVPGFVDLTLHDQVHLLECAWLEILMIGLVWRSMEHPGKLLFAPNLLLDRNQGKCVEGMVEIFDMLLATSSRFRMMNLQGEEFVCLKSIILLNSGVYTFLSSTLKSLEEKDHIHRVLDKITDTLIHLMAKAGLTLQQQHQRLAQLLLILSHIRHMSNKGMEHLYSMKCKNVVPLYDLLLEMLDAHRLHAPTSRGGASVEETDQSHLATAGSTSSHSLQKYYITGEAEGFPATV
# Procedure summary: ATG_ERa_TRANS: Attagene TRANS-FACTORIAL HepG2 Assay for human Estrogen Receptor alpha (ERa) (AID 2282970)
# Measurement context: HepG2 Attagene TRANS ERa GAL4 reporter, mRNA
Inconclusive results are not listed. The source made the active and inactive calls. The calls were made as follows: active = hit-call score of the fitted dose curve at least 0.9, where 1 is the maximum; inconclusive = response in the unintended direction; inactive = score below 0.9.
Outcome codes: 1 for active, -1 for inactive

compound="CC(=O)OC(C)(C)C1CC=C(C)CC1 (centres undefined)" class=1
compound=c1coc(CNc2ncnc3nc[nH]c23)c1 class=-1
compound="CCCCCCCC1CCCC1=O (centres undefined)" class=-1
compound="CC1=CCC(C(C)(C)O)CC1 (centres undefined)" class=-1
compound="CCC(C)C1CCCCC1=O (centres undefined)" class=-1
compound=CCc1cccc(O)c1 class=-1
compound=Cc1cccc(O)c1 class=-1
compound=CCCCCCOc1ccc(O)cc1 class=1
compound="COC(=O)C(C)Oc1ccc(Oc2ncc(C(F)(F)F)cc2Cl)cc1 (centres undefined)" class=-1
compound=CCC(C)(C)C1CCC(=O)CC1 class=1
compound="CC12CCC(C1)C(C)(C)C2O (centres undefined)" class=-1
compound="CC(C)Cc1ccc(C(C)C(=O)O)cc1 (centres undefined)" class=1
compound=[Cu+] class=-1
compound="CC1(C)CC(N)CC(C)(CN)C1 (centres undefined)" class=-1
compound=CCCCOCCOCCOCCO class=-1
compound=O=C(O)c1ccco1 class=-1
compound=CC(=O)c1ccc2ccccc2c1 class=1
compound="CC(O)CN (centres undefined)" class=-1
compound=NNC(=O)OCc1ccccc1 class=-1
compound=COC(=O)c1cccc(C(=O)OC)c1 class=-1
compound=NC(=O)c1cccnc1 class=-1
compound=CCCCCCCCCCCCOC(C)=O class=-1
compound="C=COCC1CCC(COC=C)CC1 (centres undefined)" class=-1
compound=CC/C=C\CCCCO class=-1
compound=CC(=O)c1ccc(O)cc1 class=-1
compound=CCCCCCCOC(C)=O class=1
compound=CC(C)C(=O)c1ccccc1 class=1
compound=CCCCN(CCO)CCO class=-1
compound=CCCCCc1cccc(=O)o1 class=-1
compound=CC(C)COC(=O)c1ccccc1 class=-1
compound="CC1=CC(C)C(C=O)C(C)C1 (centres undefined) (tested in a mixture with another compound)" class=-1
compound=CCCCOCCOC(=O)c1ccccc1C(=O)OCCOCCCC class=-1
compound=CCCCCCCCCCCCCCCCCC(=O)OCCCCCCCCCCCCCC(C)C class=-1
compound=CCCCCCCCCO class=-1

All figures here come from PubChem BioAssay (EPA / NIEHS).
